# System: Candida albicans A. 10231
# TEST_METHOD_NOTES: In vitro antifungal activity, microbroth dilution MIC
# Type: cell-based
# STUDY_CONDITIONS: C. albicans A. 10231, RPMI-1640, 35° C., 4 to 48 hours
Please provide measured Minimal inhibitory concentration (MIC) for the entries that follow.
Numbers only here, please. The scale is µg/mL.

**Query** Look up Candida albicans A. 10231 data: Minimal inhibitory concentration (MIC) of Cc1cc(C)cc(C=C(F)OCC2COC(Cn3ccnc3)(c3ccc(F)cc3F)O2)c1 (mixture of isomers) , then report it.
**Result** 12.5

**Query** Look up Candida albicans A. 10231 data: Minimal inhibitory concentration (MIC) of FC(OCC1COC(Cn2ccnc2)(c2ccc(Cl)cc2Cl)O1)=C(c1ccc(C(F)(F)F)cc1)C(F)(F)F (stereo not shown) , then report it.
**Result** 6.25

**Query** Look up Candida albicans A. 10231 data: Minimal inhibitory concentration (MIC) of CCOc1ccc(C=C(F)OCC2COC(Cn3ccnc3)(c3ccc(F)cc3F)O2)cc1 (mixture of isomers) , then report it.
**Result** 25.0

**Query** Look up Candida albicans A. 10231 data: Minimal inhibitory concentration (MIC) of FC(OCC1COC(Cn2ccnc2)(c2ccc(F)cc2F)O1)=C(c1ccc(C(F)(F)F)cc1)C(F)(F)F (mixture of isomers) , then report it.
**Result** 12.5

**Query** Look up Candida albicans A. 10231 data: Minimal inhibitory concentration (MIC) of FC(OCC1COC(Cn2ccnc2)(c2ccc(Cl)cc2Cl)O1)=C(c1ccc(Cl)cc1)C(F)(F)F (stereo not shown) , then report it.
**Result** 12.5

**Query** Look up Candida albicans A. 10231 data: Minimal inhibitory concentration (MIC) of Cc1cccc(C=C(F)OCC2COC(Cn3ccnc3)(c3ccc(Cl)cc3Cl)O2)c1 (stereo not shown) , then report it.
**Result** 6.25

**Query** Look up Candida albicans A. 10231 data: Minimal inhibitory concentration (MIC) of FC(OCC1COC(Cn2ccnc2)(c2ccc(Cl)cc2Cl)O1)=C(c1ccc(F)cc1)C(F)(F)F (mixture of isomers) , then report it.
**Result** 6.25

###

# Tested on: Candida krusei K. 11655
# TEST_METHOD_NOTES: In vitro antifungal activity, microbroth dilution MIC
# Assay type: cell-based
# STUDY_CONDITIONS: RPMI-1640, 35° C., 4 to 48 hours, no growth observed
Please provide measured Minimal inhibitory concentration(MIC), C. krusei K. 11655 for the entries that follow.
Numbers only here, please. The scale is µg/mL.

**Query** Consider the molecule COc1cccc(C(=C(F)N2CCN(c3ccc(OCC4COC(Cn5ccnc5)(c5ccc(F)cc5F)O4)cc3)CC2)C(F)(F)F)c1 (mixture of isomers) . State its measured Minimal inhibitory concentration(MIC), C. krusei K. 11655.
**Result** 1.56

**Query** Consider the molecule FC(=C(c1ccc(F)cc1)C(F)(F)F)N1CCN(c2ccc(OCC3COC(Cn4ccnc4)(c4ccc(Cl)cc4Cl)O3)cc2)CC1 (mixture of isomers) . State its measured Minimal inhibitory concentration(MIC), C. krusei K. 11655.
**Result** 1.56

**Query** Consider the molecule CCc1ccc(C=C(F)OCC2COC(Cn3cncn3)(c3ccc(Cl)cc3Cl)O2)cc1 (mixture of isomers) . State its measured Minimal inhibitory concentration(MIC), C. krusei K. 11655.
**Result** 25.0

**Query** Consider the molecule CCCCc1ccc(C(=C(F)N2CCN(c3ccc(OCC4COC(Cn5ccnc5)(c5ccc(F)cc5F)O4)cc3)CC2)C(F)(F)F)cc1 (mixture of isomers) . State its measured Minimal inhibitory concentration(MIC), C. krusei K. 11655.
**Result** 3.13

**Query** Consider the molecule COc1ccc(C(=C(F)Oc2ccc(OCC3COC(Cn4cncn4)(c4ccc(Cl)cc4Cl)O3)cc2)C(F)(F)F)cc1 (mixture of isomers) . State its measured Minimal inhibitory concentration(MIC), C. krusei K. 11655.
**Result** 100

**Query** Consider the molecule FC(Oc1ccc(OCC2COC(Cn3cncn3)(c3ccc(Cl)cc3Cl)O2)cc1)=C(c1ccc(Cl)cc1)C(F)(F)F (mixture of isomers) . State its measured Minimal inhibitory concentration(MIC), C. krusei K. 11655.
**Result** 12.5

**Query** Consider the molecule COc1ccc(C=C(F)OCC2COC(Cn3cncn3)(c3ccc(Cl)cc3Cl)O2)cc1 (mixture of isomers) . State its measured Minimal inhibitory concentration(MIC), C. krusei K. 11655.
**Result** 100

**Query** Consider the molecule CCc1ccc(C(=C(F)N2CCN(c3ccc(OCC4COC(Cn5ccnc5)(c5ccc(Cl)cc5Cl)O4)cc3)CC2)C(F)(F)F)cc1 (mixture of isomers) . State its measured Minimal inhibitory concentration(MIC), C. krusei K. 11655.
**Result** 3.13
